- assay-overview: pKa measured in 1:1 ethanol/water
- Assay type: physicochemical
- condition-set: p-toluenesulfonate salt
property-label: pKa
Answers are plain numbers.

Exam item: I'd like to know its pKa. The compound in question is CCCCCC(O)CCN1C(=O)CCN1CCCCCCC(=O)NC(C)C (stereo not shown)
Marked response: 3.25
